Molecular target: human cytoplasmic dynein 2 (GFP-dynein 2, amino acids 1091–4307) (Homo sapiens, UniProt Q8NCM8)
Construct: (AA 1091–4307, uniprot: Q8NCM8); protein A tag (followed by TEV-cleavable linker) (N, cleaved yes); made in house; host or cells: Sf9 insect cells (baculovirus)
Sequence (Q8NCM8 1091-4307): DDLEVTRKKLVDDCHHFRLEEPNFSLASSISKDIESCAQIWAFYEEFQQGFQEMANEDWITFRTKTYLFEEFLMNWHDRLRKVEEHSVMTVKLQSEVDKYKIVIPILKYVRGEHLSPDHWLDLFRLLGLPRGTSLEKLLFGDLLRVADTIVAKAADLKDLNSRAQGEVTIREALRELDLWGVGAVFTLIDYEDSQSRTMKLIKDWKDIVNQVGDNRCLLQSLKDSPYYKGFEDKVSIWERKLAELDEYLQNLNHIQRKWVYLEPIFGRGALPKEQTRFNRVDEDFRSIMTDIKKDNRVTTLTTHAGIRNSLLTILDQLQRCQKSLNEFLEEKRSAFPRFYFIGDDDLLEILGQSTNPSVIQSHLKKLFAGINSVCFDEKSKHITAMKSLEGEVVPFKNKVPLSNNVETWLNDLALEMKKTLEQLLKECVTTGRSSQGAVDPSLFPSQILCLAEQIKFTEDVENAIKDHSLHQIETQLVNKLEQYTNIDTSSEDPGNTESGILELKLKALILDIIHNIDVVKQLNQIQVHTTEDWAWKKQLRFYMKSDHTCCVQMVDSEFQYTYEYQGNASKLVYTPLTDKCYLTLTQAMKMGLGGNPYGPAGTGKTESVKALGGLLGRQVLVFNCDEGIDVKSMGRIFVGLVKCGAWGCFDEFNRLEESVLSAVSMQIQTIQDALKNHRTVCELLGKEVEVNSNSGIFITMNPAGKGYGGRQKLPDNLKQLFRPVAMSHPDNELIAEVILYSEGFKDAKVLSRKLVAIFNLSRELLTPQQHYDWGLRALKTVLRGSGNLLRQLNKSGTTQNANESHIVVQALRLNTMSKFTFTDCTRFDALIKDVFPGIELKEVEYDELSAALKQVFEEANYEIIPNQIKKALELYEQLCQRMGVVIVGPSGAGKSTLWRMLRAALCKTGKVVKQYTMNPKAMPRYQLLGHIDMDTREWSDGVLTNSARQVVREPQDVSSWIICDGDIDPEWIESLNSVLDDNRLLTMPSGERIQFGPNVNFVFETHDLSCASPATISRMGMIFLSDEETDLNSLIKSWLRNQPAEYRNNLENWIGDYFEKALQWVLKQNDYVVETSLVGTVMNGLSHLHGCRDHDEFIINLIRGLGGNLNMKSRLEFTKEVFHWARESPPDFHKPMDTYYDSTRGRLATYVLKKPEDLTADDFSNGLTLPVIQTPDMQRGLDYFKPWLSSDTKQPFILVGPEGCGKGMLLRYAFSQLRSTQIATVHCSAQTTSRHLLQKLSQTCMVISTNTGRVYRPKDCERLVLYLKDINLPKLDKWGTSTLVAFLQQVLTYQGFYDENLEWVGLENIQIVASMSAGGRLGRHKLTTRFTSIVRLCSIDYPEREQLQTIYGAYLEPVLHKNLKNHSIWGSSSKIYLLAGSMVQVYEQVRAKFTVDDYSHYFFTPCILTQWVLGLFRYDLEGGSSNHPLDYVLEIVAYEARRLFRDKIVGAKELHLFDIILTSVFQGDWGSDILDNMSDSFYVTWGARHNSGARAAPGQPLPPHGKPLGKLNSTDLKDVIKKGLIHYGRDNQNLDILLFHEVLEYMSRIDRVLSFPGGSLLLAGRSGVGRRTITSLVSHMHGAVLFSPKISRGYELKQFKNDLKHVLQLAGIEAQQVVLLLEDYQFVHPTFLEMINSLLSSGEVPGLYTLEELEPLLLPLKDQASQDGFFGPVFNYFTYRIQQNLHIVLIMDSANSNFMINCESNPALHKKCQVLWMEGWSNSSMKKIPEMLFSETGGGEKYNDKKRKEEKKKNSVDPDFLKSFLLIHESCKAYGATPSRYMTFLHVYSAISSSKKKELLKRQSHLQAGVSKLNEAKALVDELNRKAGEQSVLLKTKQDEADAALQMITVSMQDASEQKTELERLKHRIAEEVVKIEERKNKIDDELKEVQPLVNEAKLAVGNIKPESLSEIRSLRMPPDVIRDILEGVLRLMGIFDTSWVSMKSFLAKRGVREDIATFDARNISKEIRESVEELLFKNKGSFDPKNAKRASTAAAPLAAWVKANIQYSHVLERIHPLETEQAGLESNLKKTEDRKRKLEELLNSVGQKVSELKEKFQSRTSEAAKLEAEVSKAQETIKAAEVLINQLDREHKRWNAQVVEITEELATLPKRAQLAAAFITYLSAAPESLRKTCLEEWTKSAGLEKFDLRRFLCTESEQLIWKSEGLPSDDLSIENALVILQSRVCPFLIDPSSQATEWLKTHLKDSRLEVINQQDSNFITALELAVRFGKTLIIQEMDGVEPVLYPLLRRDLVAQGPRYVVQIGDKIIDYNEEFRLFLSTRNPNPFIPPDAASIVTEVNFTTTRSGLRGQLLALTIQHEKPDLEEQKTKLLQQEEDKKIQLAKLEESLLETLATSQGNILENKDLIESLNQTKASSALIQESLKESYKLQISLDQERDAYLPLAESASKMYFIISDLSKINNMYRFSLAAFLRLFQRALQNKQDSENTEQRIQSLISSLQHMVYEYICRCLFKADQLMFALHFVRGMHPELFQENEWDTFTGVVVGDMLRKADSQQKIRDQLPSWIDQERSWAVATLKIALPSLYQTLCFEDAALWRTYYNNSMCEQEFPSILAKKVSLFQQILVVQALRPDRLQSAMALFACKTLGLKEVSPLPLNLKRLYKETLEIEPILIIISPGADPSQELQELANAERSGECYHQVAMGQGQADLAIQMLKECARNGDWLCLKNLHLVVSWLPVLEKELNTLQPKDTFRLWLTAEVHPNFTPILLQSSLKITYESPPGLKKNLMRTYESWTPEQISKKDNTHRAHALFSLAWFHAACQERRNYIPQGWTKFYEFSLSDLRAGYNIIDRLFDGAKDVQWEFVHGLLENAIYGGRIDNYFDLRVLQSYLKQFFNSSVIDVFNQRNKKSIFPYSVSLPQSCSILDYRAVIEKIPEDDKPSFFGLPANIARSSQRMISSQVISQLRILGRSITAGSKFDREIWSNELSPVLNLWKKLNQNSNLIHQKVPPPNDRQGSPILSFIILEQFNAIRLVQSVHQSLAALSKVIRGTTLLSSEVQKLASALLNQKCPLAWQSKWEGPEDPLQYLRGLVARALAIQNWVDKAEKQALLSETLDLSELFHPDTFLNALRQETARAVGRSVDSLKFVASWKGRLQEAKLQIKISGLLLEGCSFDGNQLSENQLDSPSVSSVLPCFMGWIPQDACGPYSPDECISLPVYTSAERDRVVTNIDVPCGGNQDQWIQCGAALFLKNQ
Test: Microtubule gliding (motility) assay with GFP-dynein 2
Type: biochemical
Settings: 20 µM compound; 1 mM MgATP, 0.05 mg/mL casein, 2% DMSO; solvent control 128 ± 14 nm/s; mean ± S.D.
Method: We purified an N-terminally GFP-tagged motor-domain construct of dynein 2 using an insect cell expression system ([Schmidt et al., 2015]). […] Microscopy conditions: Following addition of reaction mix, microtubules were allowed to bind for 5 min before imaging. […] Velocities were measured using the kymograph tool in FIJI ([Schindelin et al., 2012]). […]
value-type: Velocity of dynein-2-driven microtubule gliding (nm/s)
Write the number in nm/s without appending the unit.

Indicate the recorded Velocity of dynein-2-driven microtubule gliding value for this molecule: COc1ccc2c(c1)c(=O)[nH]c1c(C#N)c(C3(c4ccc(Cl)cc4)CC3)nn12 [Compound 7]
128

Indicate the recorded Velocity of dynein-2-driven microtubule gliding value for this molecule: N#Cc1c(-c2ccc(Cl)cc2Cl)cn2c1[nH]c(=O)c1ccccc12 [Compound 2]
126

Indicate the recorded Velocity of dynein-2-driven microtubule gliding value for this molecule: N#Cc1c(C2(c3ccc(Cl)cc3)CC2)nn2c1[nH]c(=O)c1cc(I)ccc12 [Compound 8]
6

---

Molecular target: His-dynein 1 (Homo sapiens)
Construct: (wild-type, K1912A, K2601A, AA 1320–4646, uniprot: Q14204)
Test: Microtubule-stimulated ATPase activity of His-dynein 1
Details: 2.5 µM microtubules, 1 mM MgATP, fit to non-zero plateau; read-out: IC50, inhibition of microtubule-stimulated His-dynein 1 ATPase activity
value-type: IC50 (µM)
Write the number in µM without appending the unit.

Indicate the recorded IC50 value for this compound: N#Cc1c(C2(c3ccc(Cl)cc3)CC2)nn2c1[nH]c(=O)c1cc(I)ccc12 [Compound 8]
6.2

---

Target: human cytoplasmic dynein 2 (GFP-dynein 2, amino acids 1091–4307) (Homo sapiens)
Construct: (AA 1091–4307, uniprot: Q8NCM8); protein A tag (followed by TEV-cleavable linker) (N, cleaved yes); made in house; host or cells: Sf9 insect cells (baculovirus)
Experiment: Microtubule gliding (motility) assay with GFP-dynein 2
Type: biochemical
Settings: 20 µM compound; 1 mM MgATP, 0.05 mg/mL casein, 2% DMSO; solvent control 128 ± 14 nm/s; mean ± S.D.
Hi there, I'd appreciate the recorded Velocity of dynein-2-driven microtubule gliding for every entry that follows.

Indicate the recorded Velocity of dynein-2-driven microtubule gliding value for this molecule: N#Cc1c(C2(c3ccc(Cl)cc3)CC2)nn2c1[nH]c(=O)c1ccccc12
58 ± 14 nm/s

Indicate the recorded Velocity of dynein-2-driven microtubule gliding value for this molecule: N#C/C(C(=O)c1ccc(Cl)cc1Cl)=C1\NC(=O)c2ccc(Cl)cc2N1 [ciliobrevin D, reference compound]
83 ± 10 nm/s

Indicate the recorded Velocity of dynein-2-driven microtubule gliding value for this molecule: N#Cc1c(C2(c3ccc(Cl)cc3)CC2)nn2c1[nH]c(=O)c1cc(C(F)(F)F)ccc12
6 ± 2 nm/s

---

Endpoint: IC50. System: human cytoplasmic dynein 2 (GFP-dynein 2, amino acids 1091–4307) (Homo sapiens). Items follow.
Write the number in µM without appending the unit.

Indicate the recorded IC50 value for this molecule: N#C/C(C(=O)c1ccc(Cl)cc1Cl)=C1\NC(=O)c2ccc(Cl)cc2N1 [ciliobrevin D, reference compound]
20

Indicate the recorded IC50 value for this molecule: N#Cc1c(C2(c3ccc(Cl)cc3)CC2)nn2c1[nH]c(=O)c1cc(C(F)(F)F)ccc12 [Compound 6]
2.9

Indicate the recorded IC50 value for this molecule: N#C/C(C(=O)c1ccc(Cl)cc1Cl)=C1\NC(=O)c2cc(C(F)(F)F)ccc2N1 [Compound 9]
17.7

Indicate the recorded IC50 value for this molecule: N#Cc1c(C2(c3ccc(Cl)cc3)CC2)nn2c1[nH]c(=O)c1cc(I)ccc12 [Compound 8]
2.6
